// compounds with IC50 on Endothelial PAS domain-containing protein 1 (Homo sapiens, UniProt Q99814), multi-source literature

# compound, IC50
records = [
    ("OC1CCc2c(OCC(F)F)cnc(C3(C(F)(F)F)CC3)c21 (centres unmarked)", "> 1 µM"),
    ("CC(C)Oc1cnc(C(F)(F)F)c2c1C[C@@H](F)[C@H]2O", "0.25 to 1 µM"),
    ("N#Cc1cc(F)cc(Oc2ccc3c(c2C(F)F)[C@@H](N)C(F)(F)S3(=O)=O)c1", "0.05 to 0.249 µM"),
    ("CO[C@H]1C[C@H](Oc2ccc(S(=O)(=O)C(F)(F)F)c3c2CC(F)(F)[C@H]3O)C1", "< 0.05 µM"),
    ("O[C@H]1c2c(C(F)(F)F)ncc(OC3CC(F)(F)C3)c2C[C@H]1F", "< 0.05 µM"),
    ("OC1c2c(OCC(F)F)ccc(C(F)(F)F)c2C(F)C1(F)F (centres unmarked)", "> 1 µM"),
]

[Q] Let me know recorded IC50 for CS(=O)(=O)c1ccc(OC2CCOCC2)c2c1[C@H](O)C(F)(F)C2 , thanks.
[A] 0.25 to 1 µM

[Q] Determine from records and report IC50 for N#C[C@H]1C[C@H](Oc2ccc(S(=O)(=O)C(F)(F)F)c3c2CC(F)(F)C3O)C1 (some centres unmarked)
[A] < 0.05 µM

###

Please find below IC50 measurements for Endothelial PAS domain-containing protein 1 (Homo sapiens), combined from several publications.

Use these answered entries as a reference point.
# molecule, measured endpoint, measured
records = [
    ("O=S(=O)(c1ccc(OC2CC(O)C2)c2c1[C@H](O)C(F)(F)C2)C(F)(F)F (some centres unmarked)", "IC50", "0.25 to 1 µM"),
    ("N#Cc1cc(F)cc(Oc2ncc(Br)c3c2C(F)C(F)(F)C3F)c1 (centres unmarked)", "IC50", "> 1 µM"),
    ("CS(=O)(=O)c1ccc(O[C@H]2C[C@H](C#N)C2)c2c1[C@H](O)C(F)(F)[C@@H]2F", "IC50", "< 0.05 µM"),
    ("O[C@H]1c2c(C(F)(F)F)ncc(OCCCF)c2C[C@H]1F", "IC50", "< 0.05 µM"),
    ("CS(=O)(=O)c1ccc(OC[C@H]2CC2(F)F)c2c1[C@H](O)C(F)(F)[C@@H]2F", "IC50", "0.05 to 0.249 µM"),
]

[Q] Quick one: give measured IC50 for O=S(=O)(c1ccc(-c2cccc(O)c2)c2c1[C@H](O)C(F)(F)C2)C(F)(F)F
[A] > 1 µM

[Q] Identify measured IC50 associated with N#CC1(COc2ccc(S(=O)(=O)C(F)(F)F)c3c2CC(F)(F)C3O)CC1 (centres unmarked)
[A] < 0.05 µM

[Q] For the molecule O=S(=O)(CF)c1ccc(OC2CC(F)(F)C2)c2c1[C@H](O)[C@H](F)[C@@H]2F (racemic) , give its reported IC50.
[A] < 0.05 µM
